System: Saccharomyces cerevisiae;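 note: PSI is a weighted mean of sequencing reads over stability bins, variants kept only with over 10 reads, mCherry proximal and sfGFP distal, peptide attached via GGGS linker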
assay-comment: protein stability index of tFT-peptide fusion (C-terminal peptide) (PSI (0-1 scale)); higher = more stable (slower turnover)
test-settings: genetic background: das1 deletion; temperature: 37 C
Exercise: for every item that follows, state its recorded protein stability index.
Give your answer as a number; write no unit.

The recorded protein stability index for entry "SVIVSSFFLWVF" equals 0.482

For reference, reported protein stability index for "FLWAVSLCRSLV" stands at 0.662

Quick note, protein stability index for "LPILFPAALRLY" landed at 0.604

Given item "LFHSIPRLLLLK" , the value recorded as its protein stability index is 0.27

protein stability index measured on "ILGQSVIMRIKM" = 0.701

Please fill in: protein stability index reported for "KYKANLGNLKVH" = 0.725

Value of protein stability index reported for the sequence "RFICMMYLVYLC" is 0.3

Briefly, protein stability index measured for "FWILLRVLIFVL" : 0.321

Noted for "WFALFYFLVSAF" : its protein stability index reads 0.316

"SLVPSIFLFRIF" has a reported protein stability index of 0.682

Lab book: protein stability index of "LWFVIYLLCFFV" noted as 0.482

Entry under test: "LWCLVWGGVWGV" . Its protein stability index was 0.555

Per the records, this sequence ( "LGGVEDRWRTAT" ) has protein stability index equal to 0.723

So, "PPSPAPLPDSLP" ? Its protein stability index was 0.715

The sequence identified as "YSIHYLRFFSLF" registered its protein stability index at 0.726

The reported value for "FFFLPLFLVLSL" in terms of protein stability index is 0.378

Kindly note the recorded protein stability index for "SRARIRLPRILS" , which is 0.724

The value of protein stability index measured for the sequence "RWTKMNNLIIEF" turned out to be 0.742

The reported value for "FCFLLLVSFFFV" in terms of protein stability index is 0.388
